Sourced from ChEMBL document CHEMBL1156908

measured_target: Monoacylglycerol lipase ABHD6 (Mus musculus)
Sequence (Q8R2Y0 whole entry): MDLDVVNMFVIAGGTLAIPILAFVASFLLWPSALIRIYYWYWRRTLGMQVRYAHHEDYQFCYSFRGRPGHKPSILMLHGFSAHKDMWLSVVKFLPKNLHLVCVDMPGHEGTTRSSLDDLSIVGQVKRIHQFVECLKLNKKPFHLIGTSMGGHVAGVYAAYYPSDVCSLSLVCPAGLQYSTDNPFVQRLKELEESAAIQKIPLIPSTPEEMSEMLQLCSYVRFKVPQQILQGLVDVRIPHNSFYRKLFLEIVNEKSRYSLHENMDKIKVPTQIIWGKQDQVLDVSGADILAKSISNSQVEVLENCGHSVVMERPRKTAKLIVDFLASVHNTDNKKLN
assay_procedure: Inhibition of ABHD6 in mouse brain membrane
endpoint: IC50

entry_smiles	endpoint	value
O=C(Oc1ccc([N+](=O)[O-])cc1)N1CCN(Cc2ccc3ccccc3c2)CC1	IC50	150 nM
O=C(Oc1ccc([N+](=O)[O-])cc1)N1CCC(=C(c2ccccc2)c2ccccc2)CC1	IC50	1300 nM
COc1cc(OCc2ccccc2)ccc1CN1CCN(C(=O)Oc2ccc([N+](=O)[O-])cc2)CC1	IC50	310 nM
CN(CCC(c1ccccc1)c1ccccc1)C(=O)Oc1ccc([N+](=O)[O-])cc1	IC50	> 50000 nM

Query block: Please give the measured IC50 for this compound: O=C(Oc1ccc([N+](=O)[O-])cc1)N1CCC(C(O)(c2ccc3ccccc3c2)c2ccc3ccccc3c2)CC1
Result block: 3430 nM

====

measured_target: Patatin-like phospholipase domain-containing protein 6 (Mus musculus)
Sequence (Q3TRM4 whole entry, the tested form may be a part): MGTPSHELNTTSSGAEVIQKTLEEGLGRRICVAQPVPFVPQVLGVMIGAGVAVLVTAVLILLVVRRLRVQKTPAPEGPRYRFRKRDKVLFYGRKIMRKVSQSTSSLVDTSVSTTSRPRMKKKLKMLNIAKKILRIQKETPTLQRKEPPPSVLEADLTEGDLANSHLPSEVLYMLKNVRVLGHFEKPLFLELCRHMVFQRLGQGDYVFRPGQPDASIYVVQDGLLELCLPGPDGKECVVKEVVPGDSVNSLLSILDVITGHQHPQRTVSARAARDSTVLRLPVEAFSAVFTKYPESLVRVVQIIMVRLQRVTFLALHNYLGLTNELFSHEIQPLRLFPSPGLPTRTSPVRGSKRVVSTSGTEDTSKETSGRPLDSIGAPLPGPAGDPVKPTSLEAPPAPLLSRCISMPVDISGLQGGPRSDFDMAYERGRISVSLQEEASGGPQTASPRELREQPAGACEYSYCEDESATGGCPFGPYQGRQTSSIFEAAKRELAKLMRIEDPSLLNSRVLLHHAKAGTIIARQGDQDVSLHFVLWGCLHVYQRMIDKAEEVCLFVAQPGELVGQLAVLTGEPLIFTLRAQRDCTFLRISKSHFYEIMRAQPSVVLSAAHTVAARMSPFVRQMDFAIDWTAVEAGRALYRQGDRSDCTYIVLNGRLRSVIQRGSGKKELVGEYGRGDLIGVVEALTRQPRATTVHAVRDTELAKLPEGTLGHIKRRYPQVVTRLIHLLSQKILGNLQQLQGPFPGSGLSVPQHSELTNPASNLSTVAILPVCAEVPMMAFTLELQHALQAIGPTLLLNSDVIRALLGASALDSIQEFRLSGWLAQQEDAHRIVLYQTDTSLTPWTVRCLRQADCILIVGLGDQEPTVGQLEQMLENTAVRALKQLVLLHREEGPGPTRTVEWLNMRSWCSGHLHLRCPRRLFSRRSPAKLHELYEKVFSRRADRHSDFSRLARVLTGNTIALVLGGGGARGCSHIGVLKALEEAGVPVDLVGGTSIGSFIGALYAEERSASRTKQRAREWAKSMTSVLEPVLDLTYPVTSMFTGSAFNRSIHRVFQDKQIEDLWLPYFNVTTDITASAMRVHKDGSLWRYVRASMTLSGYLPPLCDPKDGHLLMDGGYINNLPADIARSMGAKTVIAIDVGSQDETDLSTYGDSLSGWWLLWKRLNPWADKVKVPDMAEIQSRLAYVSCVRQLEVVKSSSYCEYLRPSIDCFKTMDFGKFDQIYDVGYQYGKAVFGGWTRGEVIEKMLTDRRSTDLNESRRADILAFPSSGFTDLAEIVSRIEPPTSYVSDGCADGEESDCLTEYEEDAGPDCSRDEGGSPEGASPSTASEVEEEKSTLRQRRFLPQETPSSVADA
assay_procedure: Inhibition of NTE in mouse brain membrane
Type: cell membranes
pIC50: −log10 of the molar value.
Use 6 as the dividing line for pIC50, with the line itself on the satisfied side and lower values as not satisfied.

# example entries with known answers
entry_smiles	cat
COc1ccc(Oc2cccc(CN3CCN(C(=O)Oc4ccc([N+](=O)[O-])cc4)CC3)c2)cc1	not satisfied
O=C(Oc1ccc([N+](=O)[O-])cc1)N1CCN(Cc2ccc(-c3ccccc3)o2)CC1	satisfied
O=C(Oc1ccc([N+](=O)[O-])cc1)N1CCN(Cc2ccccc2)CC1	satisfied

Continue with the next compound.
Query block: Given O=C(Oc1ccc([N+](=O)[O-])cc1)N1CCN(Cc2ccccc2-c2ccccc2)CC1 , state whether its pIC50 is at least 6.
Result block: satisfied

====

measured_target: Monoglyceride lipase (Mus musculus)
Sequence (O35678 whole entry): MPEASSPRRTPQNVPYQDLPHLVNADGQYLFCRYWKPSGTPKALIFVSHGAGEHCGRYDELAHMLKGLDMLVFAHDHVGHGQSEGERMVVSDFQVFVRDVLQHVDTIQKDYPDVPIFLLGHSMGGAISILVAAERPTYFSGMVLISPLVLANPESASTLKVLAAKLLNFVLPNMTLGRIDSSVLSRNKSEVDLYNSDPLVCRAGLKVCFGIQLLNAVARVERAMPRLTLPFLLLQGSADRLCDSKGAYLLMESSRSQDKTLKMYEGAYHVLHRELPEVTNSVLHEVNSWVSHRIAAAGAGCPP
assay_procedure: Inhibition of MAGL in mouse brain membrane
endpoint: log10 IC50 (log10 of the value in nM)
Scale: decimal log of IC50, IC50 in nM.

// solved cases for log10 IC50 follow
entry_smiles	measured_target	log10 IC50
O=C(Oc1ccc([N+](=O)[O-])cc1)N1CCC(C(O)(c2ccc3ccccc3c2)c2ccc3ccccc3c2)CC1	Monoglyceride lipase (Mus musculus)	2.91
O=C(Oc1ccc([N+](=O)[O-])cc1)N1CCN(Cc2ccc(-c3ccccc3)s2)CC1	Monoglyceride lipase (Mus musculus)	1.70
O=C(Oc1ccc([N+](=O)[O-])cc1)N1CCN(Cc2cc(Br)ccc2O)CC1	Monoglyceride lipase (Mus musculus)	1.95
O=C(Oc1ccc([N+](=O)[O-])cc1)N1CCC(C(O)(c2ccccc2)c2ccccc2)CC1	Monoglyceride lipase (Mus musculus)	2.84
O=C(Oc1ccc([N+](=O)[O-])cc1)N1CCN(Cc2ccc(-c3ccccc3OC(F)(F)F)o2)CC1	Monoglyceride lipase (Mus musculus)	1.85

Each molecule below has a reported value. Please supply its log10 IC50.
1. CN(C)c1ccc(C(O)(c2ccc(N(C)C)cc2)C2CCN(C(=O)Oc3ccc([N+](=O)[O-])cc3)CC2)cc1
2. COc1ccc(CN2CCN(C(=O)Oc3ccc([N+](=O)[O-])cc3)CC2)cc1
3. O=C(Oc1ccc([N+](=O)[O-])cc1)N1CCN(C2c3ccccc3Oc3ccccc32)CC1
4. O=C(Oc1ccc([N+](=O)[O-])cc1)N1CCN(Cc2ccccc2-c2ccccc2)CC1
5. O=C(Oc1ccc([N+](=O)[O-])cc1)N1CCN(Cc2ccc3ccccc3n2)CC1
6. O=C(Oc1ccc([N+](=O)[O-])cc1)N1CCN(Cc2cccc(Oc3cccc(C(F)(F)F)c3)c2)CC1
7. COc1ccccc1C(O)(c1ccccc1OC)C1CCN(C(=O)Oc2ccc([N+](=O)[O-])cc2)CC1
8. O=C(Oc1ccc([N+](=O)[O-])cc1)N1CCC(=C(c2ccccc2)c2ccccc2)CC1

Result block:
1: 3.33; 2: 3.18; 3: 3.79; 4: 2.83; 5: 1.90; 6: 2.48; 7: 2.71; 8: 3.14
